Molecular target: T1, Pot1pC (Schizosaccharomyces pombe, UniProt O13988 178-389)
T1 sequence: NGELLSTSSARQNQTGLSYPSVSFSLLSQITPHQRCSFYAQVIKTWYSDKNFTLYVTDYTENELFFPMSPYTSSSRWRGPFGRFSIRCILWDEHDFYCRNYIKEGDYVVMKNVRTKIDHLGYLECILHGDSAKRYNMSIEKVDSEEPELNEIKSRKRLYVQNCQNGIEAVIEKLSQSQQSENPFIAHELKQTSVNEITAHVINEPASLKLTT
Assay: EMSA
Property: Kd; scope: individual binders
Express it in nM; write the number only.

Please review the entries below; each comes with its answer.
- BINDER: "GGTTACGGTT (ssDNA) [10mer-3']"
  REPORTED: 300
- BINDER: "GGTTACGGTTAC (ssDNA) [12mer]"
  REPORTED: 700
- BINDER: "GGTTACGGA (ssDNA) [9mer_T9A]"
  REPORTED: 2000
- BINDER: "GGTAACGGT (ssDNA) [9mer_T4A]"
  REPORTED: 700

Kindly consider the entry below.
Challenge: For GGTTACGGTTA (ssDNA) [11mer-3'] , what is its reported Kd?
Response given: 600

Provenance of the data: paper PMC2756145
